The measurements presented in this section are drawn from ChEMBL document CHEMBL1157539.

# Test system: HepG2
# Protocol: GSK_TCMDC: Percent inhibition of human HepG2 cell line. Test compounds present at 10uM.
# Assay type: functional
Category key, based on recorded Inhibition: low-valued = under 10%, mid-valued = from 10% up to 30%, high-valued = 30% and over

compound=Nc1cccc(CNCc2ccc(-c3ccc(-c4nc5cc(C(F)(F)F)ccc5[nH]4)s3)cc2)c1.O=C(O)C(F)(F)F assigned_class=mid-valued
compound=CCCn1c(Sc2ccc(C#N)c([N+](=O)[O-])c2)nnc1-c1ccc(Cl)cc1 assigned_class=mid-valued
compound=CCOP(=O)(OCC)c1ccc(OC)c(-c2ccc[nH]2)c1 assigned_class=low-valued
compound=O=C(/C=C/c1ccc(Cl)c(Cl)c1)N1CCC(CN2CCC(c3nc4ccccc4n3CCCO)CC2)CC1 assigned_class=high-valued
compound=COc1ccc(CN(C)CCCOc2ccc(NC(=O)c3cccc4c(=O)c5cccc(F)c5[nH]c34)cc2)cc1OC assigned_class=low-valued
compound="O=C(/C=C/C=C/c1ccc(Cl)c(Cl)c1)NCCCCCN1CCCC2CCCCC21 (centres undefined)" assigned_class=high-valued
compound=CN1CCN(CC(=O)Nc2ccc(-c3ccc(-c4nc5ccccc5[nH]4)cc3)cc2)CC1 assigned_class=mid-valued
compound=N#Cc1cncc(-c2nc3c(N4CCN(c5cnccn5)CC4)cccc3n2CCNCc2ccccc2)c1.O=C(O)C(F)(F)F assigned_class=low-valued
compound=Cl.ON=C1CCc2cc(-c3nc(-c4ccc(OCCN5CCCCC5)cc4)[nH]c3-c3ccncc3)ccc21 assigned_class=high-valued
compound=CC(C)N1CCN(CCCNc2c3ccccc3nc3ccccc23)CC1.Cl assigned_class=mid-valued
compound=N=c1ccn(CC(=NO)c2ccc(Cl)c(Cl)c2)cc1 assigned_class=mid-valued
compound=COc1cccc2cc(C(=O)N[C@@H](CC(C)C)C(=O)N[C@H](C=NN3CC(=O)NC3=O)CC(C)C)oc12 assigned_class=low-valued
compound=Cc1cc(N)ncc1-c1ccc(NC(=O)Nc2cc(C(F)(F)F)ccc2F)cc1.O=C(O)C(F)(F)F assigned_class=mid-valued
compound=Cc1nnc(-c2cccc(Nc3ccnc4cc(-c5nccs5)ccc34)c2)o1.Cl assigned_class=high-valued
compound=O=C(Nc1ccon1)c1cc(-c2cccnc2)nc2ccc(Cl)cc12 assigned_class=low-valued
compound=FC(F)(F)c1cccc(CNC2CCN(CC3CCCCC3)CC2)c1.O=C(O)C(F)(F)F assigned_class=low-valued
compound=CCN(CC)C(=S)N/N=C1/C(=O)Nc2c(C)cccc21 assigned_class=mid-valued
compound=CCC(CC)N1CCN(CC(=O)Nc2ccc([N+](=O)[O-])cc2C(=O)Nc2cccc(OC)c2)CC1 assigned_class=high-valued

###

// Inhibition lookup, one value per entry
# Tested on: Plasmodium falciparum
# Protocol: GSK_TCMDC: Inhibition of Plasmodium falciparum 3D7 in whole red blood cells, using parasite LDH activity as an index of growth. Test compounds present at 2uM
# Format: functional
Assay metric: Inhibition (%)

compound="O=C(c1cccc(-c2ccc(-c3nc4cc(F)ccc4[nH]3)s2)c1)N1CCCCC1CN1CCC(O)C1 (stereo not given)" tgt="Plasmodium falciparum" assay_metric=Inhibition measured_result=100
compound=COc1ccc(Nc2c3ccc(Cl)cc3nc3ccc(OC)cc23)cc1.Cl tgt="Plasmodium falciparum" assay_metric=Inhibition measured_result=94
compound=COc1ccc2nccc([C@@H](O)CN3CCC(NCCOc4cccc(C(F)(F)F)c4)CC3)c2c1.O=C(O)C(=O)O tgt="Plasmodium falciparum" assay_metric=Inhibition measured_result=100
compound=O=C(Nc1ccc([N+](=O)[O-])cc1O)Nc1ccccc1Oc1ccccc1 tgt="Plasmodium falciparum" assay_metric=Inhibition measured_result=92
compound=Cn1cnc(CCNC(=O)c2ccc(-c3cccc(-c4nc5ccccc5[nH]4)c3)cc2)c1 tgt="Plasmodium falciparum" assay_metric=Inhibition measured_result=93
